Numbers sourced from patent US20250066490A1.

Target: T1, human CD70 recombinant protein (human, UniProt P32970 39-193, limits assumed)
T1 construct: May be the same reagent as ACRO CDL-H5246; also called CD70 protein
T1 sequence (looked up): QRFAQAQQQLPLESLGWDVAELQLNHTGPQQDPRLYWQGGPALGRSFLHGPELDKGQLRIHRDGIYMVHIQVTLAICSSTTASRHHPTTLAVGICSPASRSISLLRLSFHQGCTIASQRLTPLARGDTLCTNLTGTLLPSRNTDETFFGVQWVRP
Experiment: ELISA, IgG titrated on coated human CD70 recombinant protein (2 µg/ml), anti-human Fc-HRP, OD450
For each of the binders below, state its EC50.
Give bare numbers, in µg/mL.

2A4P0L1, full IgG (antibody, V domains shown) VH: QVQLQESGPGLVKPSETLSLTCTVSGGSVSSDYYYWSWIRQPPGKGLEWLGYIYYSGSTNYNPSLKSRVTISVDTSKNQFSLKLRSVTTADTAVYYCARGDGDYGGNVFPYWGQGTLVTVSS VL: EIVLTQSPATLSLSPGERATLSCRASQSVSSYLAWYQQKPGQAPRLLIFDASNRATGIPARFSGSGSGTDFTLTISSLEPEDFAVYYCQQRLKFPLTFGGGTKVEIK | 0.263
2A4, full IgG (antibody, V domains shown) VH: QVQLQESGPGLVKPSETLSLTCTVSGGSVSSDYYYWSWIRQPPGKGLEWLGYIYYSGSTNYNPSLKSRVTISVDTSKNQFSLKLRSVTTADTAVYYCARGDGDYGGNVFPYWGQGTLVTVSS VL: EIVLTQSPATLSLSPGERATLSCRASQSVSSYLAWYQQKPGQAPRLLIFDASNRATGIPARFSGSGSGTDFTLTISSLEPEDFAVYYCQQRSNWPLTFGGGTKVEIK | 9.1

Okay, next one:
In plain terms, 2D2, full IgG (antibody, V domains shown) VH: QVQLQESGPGLVKPSETLSLTCTVSGGSVSSDYYYWSWIRQPPGKGLEWLGYIYYSGSTNYNPSLKSRVTISVDTSKNQFSLKLRSVTTADTAVYYCARGDGDYGGNCFDYWGQGTLVTVSS VL: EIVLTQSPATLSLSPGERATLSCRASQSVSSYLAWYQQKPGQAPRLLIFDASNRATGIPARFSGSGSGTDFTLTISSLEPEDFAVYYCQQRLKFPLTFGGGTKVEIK has a documented EC50 of 0.087
